# PROCEDURE TEXT: Clearance in rat at 1 mg/kg, iv
# Type: ADME, organism-based
# Set-up: dose 1 mg/kg, route intravenous
# EXPERIMENTAL PARAMETERS: in vivo

| STRUCTURE STRING | UNIT INFO | clearance |
| --- | --- | --- |
| Cc1ccc(C(=O)NC2CC2)cc1-c1ccc2c(c1)NC(=O)C21CCCC1 | mL/min/kg | 6.6 |

----------
# PROCEDURE TEXT: Primary phase half life in rat at 1 mg/kg, iv
# Format: ADME, organism-based
# Parameters: dose 1 mg/kg, route intravenous
# EXPERIMENTAL PARAMETERS: in vivo, read-out: alphat1/2

| STRUCTURE STRING | half-life |
| --- | --- |
| Cc1ccc(C(=O)NC2CC2)cc1-c1ccc2c(c1)NC(=O)C21CCCC1 | < 60 min |

----------
# PROCEDURE TEXT: Cmax in rat at 10 mg/kg, po
# Assay type: ADME, organism-based
# Set-up: dose 10 mg/kg, route oral
# EXPERIMENTAL PARAMETERS: in vivo

| STRUCTURE STRING | UNIT INFO | Cmax |
| --- | --- | --- |
| Cc1ccc(C(=O)NC2CC2)cc1-c1ccc2c(c1)NC(=O)C21CCCC1 | µg/mL | 0.367 |

----------
# PROCEDURE TEXT: AUC (0 to infinity) in rat at 1 mg/kg, iv
# Assay type: ADME, organism-based
# Set-up: time infinity, dose 1 mg/kg, route intravenous
# EXPERIMENTAL PARAMETERS: plasma
PROPERTY: AUC(0-inf) (ng·h/mL)

| STRUCTURE STRING | PROPERTY | RECORDED RESULT |
| --- | --- | --- |
| Cc1ccc(C(=O)NC2CC2)cc1-c1ccc2c(c1)NC(=O)C21CCCC1 | AUC(0-inf) | 2530 |

----------
# PROCEDURE TEXT: Apparent permeability from basolateral to apical side in human Caco2 cells at 12.5 uM
# Assay type: ADME, cell-based
# EXPERIMENTAL PARAMETERS: Caco-2

| STRUCTURE STRING | Papp B→A at 12.5 µM (×10⁻⁶ cm/s) |
| --- | --- |
| Cc1ccc(C(=O)NC2CC2)cc1-c1ccc2c(c1)NC(=O)C21CCCC1 | 10 |

----------
# PROCEDURE TEXT: Cmax in rat at 1 mg/kg, iv
# Assay type: ADME, organism-based
# Set-up: dose 1 mg/kg, route intravenous
# EXPERIMENTAL PARAMETERS: in vivo
PROPERTY: Cmax (ng/mL)

| STRUCTURE STRING | RECORDED RESULT |
| --- | --- |
| Cc1ccc(C(=O)NC2CC2)cc1-c1ccc2c(c1)NC(=O)C21CCCC1 | 2000 |

----------
# PROCEDURE TEXT: Thermodynamic solubility of the compound in aqueous buffer at pH 7.4 at 37 degC by HPLC-UV analysis
# Format: physicochemical
# EXPERIMENTAL PARAMETERS: read-out: Therm_solubility
PROPERTY: solubility thermodynamic (µg/mL)

| STRUCTURE STRING | PROPERTY | UNIT INFO | RECORDED RESULT |
| --- | --- | --- | --- |
| Cc1ccc(C(=O)NC2CC2)cc1-c1ccc2c(c1)NC(=O)C21CCCC1 | solubility thermodynamic | µg/mL | 3 |
